// reported Median Survival per item
System: lymphocytic leukemia P388
ASSAY COMMENT: Lymphocytic Leukemia P388 Test
Assay type: in vivo, DBA/2 mice
PROTOCOL CONDITIONS: Dose 50 mg/kg intraperitoneally on days 1, 5 and 9
Procedure: Lymphocytic Leukemia P388 Test The animals used were DBA/2 mice all of one sex, weighing a minimum of 17 g and all within a 3 g weight range. There were 5 or 6 animals per test group. […] The animals were weighed and survivors were recorded on a regular basis for 30 days. The median survival time and the ratio of survival time for treated (T)/control (C) animals were calculated. […]
METRIC: Median Survival (days)

INSERT INTO assay_data (chemical_smiles, result_value) VALUES
  ('CC(=O)C(=O)NCCNc1ccc(NCCNC(=O)C(C)=O)c2c1C(=O)c1c(O)ccc(O)c1C2=O', 13.5),
  ('COC(=O)C(=O)NCCNc1ccc(NCCNC(=O)C(=O)OC)c2c1C(=O)c1c(O)ccc(O)c1C2=O', 20.5),
  ('CCOC(=O)NCCNc1ccc(NCCNC(=O)OCC)c2c1C(=O)c1c(O)ccc(O)c1C2=O', 21.5),
  ('CC(=O)OCCN(CCNc1ccc(NCCN(CCOC(C)=O)C(C)=O)c2c1C(=O)c1c(O)ccc(O)c1C2=O)C(C)=O', 16);

###

System: lymphocytic leukemia P388
ASSAY COMMENT: Lymphocytic Leukemia P388 Test
Format: in vivo, DBA/2 mice
PROTOCOL CONDITIONS: Dose 200 mg/kg intraperitoneally on days 1, 5 and 9
This section presents compounds with their documented T/C x 100 (%) values.
METRIC: T/C x 100 (%)

INSERT INTO measurements (chemical_smiles, measurement_target, result_value) VALUES
  ('CN(C)CCCNC(=S)N(CCO)CCNc1ccc(NCCN(CCO)C(=S)NCCCN(C)C)c2c1C(=O)c1c(O)ccc(O)c1C2=O', 'lymphocytic leukemia P388', 219),
  ('COC(=O)C(=O)NCCNc1ccc(NCCNC(=O)C(=O)OC)c2c1C(=O)c1c(O)ccc(O)c1C2=O', 'lymphocytic leukemia P388', 209),
  ('CC(=O)OCCN(CCNc1ccc(NCCN(CCOC(C)=O)C(C)=O)c2c1C(=O)c1c(O)ccc(O)c1C2=O)C(C)=O', 'lymphocytic leukemia P388', 179),
  ('CC(=O)C(=O)NCCNc1ccc(NCCNC(=O)C(C)=O)c2c1C(=O)c1c(O)ccc(O)c1C2=O', 'lymphocytic leukemia P388', 150);
